Tested on: Mus musculus
experiment.description: Neurotoxicity in mouse at 100 mg/kg, ip after 4 hrs by 6Hz psychomotor seizure test
Format: toxicity, organism-based
Set-up: dose 100 mg/kg, route intraperitoneal
cond: in vivo
measured.parameter: Activity

CCc1cc(C(O)C(F)(F)F)ccc1O (centres undefined)	Non-toxic
CCCc1cc(C(O)C(F)(F)F)cc(Br)c1O (centres undefined)	Non-toxic
Cc1cc(C(O)C(F)(F)F)ccc1O (centres undefined)	Non-toxic
CCCc1cc(C(O)C(F)(F)F)ccc1O (centres undefined)	Non-toxic

----------
Test system: Mus musculus
experiment.description: Anticonvulsant activity in mouse assessed as protection against maximal electroshock-induced seizures at 100 mg/kg, ip after 0.5 hrs
Format: functional, organism-based
Design: dose 100 mg/kg
The source made the active and inactive calls. No cut-off for these calls is given here.
measured.parameter: Activity

CCC(C)c1cc(C(O)C(F)(F)F)cc(Br)c1O (stereo not drawn)	inactive
CCCc1cc(C(O)C(F)(F)F)ccc1O (stereo not drawn)	inactive
CCCc1cc(C(O)C(F)(F)F)cc(Br)c1O (stereo not drawn)	inactive
CC(C)c1cc(C(O)C(F)(F)F)ccc1O (stereo not drawn)	inactive
CCC(C)c1cc(C(O)C(F)(F)F)ccc1O (stereo not drawn)	inactive
Cc1cc(C(O)C(F)(F)F)ccc1O (stereo not drawn)	inactive
CC(C)c1cc(C(O)C(F)(F)F)cc(Br)c1O (stereo not drawn)	inactive

Attention now turns to another entry.
Kindly note the recorded Activity for CCc1cc(C(O)C(F)(F)F)ccc1O (stereo not drawn) , which is inactive

----------
Tested on: Mus musculus
experiment.description: Anticonvulsant activity in mouse assessed as protection against maximal electroshock-induced seizures at 300 mg/kg, ip after 4 hrs
Format: functional, organism-based
Parameters: dose 300 mg/kg
Active and inactive are the calls of the source. The rule behind the calls is not given here.
measured.parameter: Activity

Illustrative cases are given below, each with its answer.
CCC(C)c1cc(C(O)C(F)(F)F)ccc1O (stereo not drawn)	inactive
CC(C)c1cc(C(O)C(F)(F)F)ccc1O (stereo not drawn)	Active
Cc1cc(C(O)C(F)(F)F)ccc1O (stereo not drawn)	Active
CCCc1cc(C(O)C(F)(F)F)cc(Br)c1O (stereo not drawn)	inactive
CCc1cc(C(O)C(F)(F)F)ccc1O (stereo not drawn)	inactive
CC(C)c1cc(C(O)C(F)(F)F)cc(Br)c1O (stereo not drawn)	inactive

Kindly note the recorded Activity for CCC(C)c1cc(C(O)C(F)(F)F)cc(Br)c1O (stereo not drawn) , which is inactive

Kindly note the recorded Activity for CCCc1cc(C(O)C(F)(F)F)ccc1O (stereo not drawn) , which is Active

----------
Test system: Mus musculus
experiment.description: Anticonvulsant activity in mouse assessed as protection against subcutaneous pentylenetetrazole-induced seizures at 300 mg/kg, ip after 0.5 hrs
Format: functional, organism-based
Parameters: dose 300 mg/kg
The source made the active and inactive calls. The calls are words filed in the database; no cut-off is given here.
Choose the fitting class; nothing outside active, inactive is accepted.

Hi, do you know how CCc1cc(C(O)C(F)(F)F)ccc1O (stereo not drawn) came out in this test? inactive

Hi, do you know how CCC(C)c1cc(C(O)C(F)(F)F)cc(Br)c1O (stereo not drawn) came out in this test? inactive

Hi, do you know how CC(C)c1cc(C(O)C(F)(F)F)ccc1O (stereo not drawn) came out in this test? active

Hi, do you know how CCCc1cc(C(O)C(F)(F)F)cc(Br)c1O (stereo not drawn) came out in this test? inactive

Hi, do you know how Cc1cc(C(O)C(F)(F)F)ccc1O (stereo not drawn) came out in this test? inactive

Hi, do you know how CCC(C)c1cc(C(O)C(F)(F)F)ccc1O (stereo not drawn) came out in this test? active

Hi, do you know how CCCc1cc(C(O)C(F)(F)F)ccc1O (stereo not drawn) came out in this test? active

Hi, do you know how CC(C)c1cc(C(O)C(F)(F)F)cc(Br)c1O (stereo not drawn) came out in this test? inactive

Attribution: ChEMBL document CHEMBL2069244
